src = patent US20230265217A1

Measured Kd, listed per entry for reference.
Target or test system: T1, Antibody 178-08_His 501.V2 (27079) (SARS-CoV-2, UniProt P0DTC2 14-685)
T1 construct: domain: S1; also called TB178-8
Method notes: Carterra SPR

# Binder, Kd [nM]
data = [
    ("7-26 (VHH) VHH: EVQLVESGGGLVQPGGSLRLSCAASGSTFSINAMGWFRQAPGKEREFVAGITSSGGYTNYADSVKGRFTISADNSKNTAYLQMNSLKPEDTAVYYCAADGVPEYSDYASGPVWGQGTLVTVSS", 74.9),
    ("7-37 (VHH) VHH: EVQLVESGGGLVQPGGSLRLSCAASGSTLSINAMGWFRQAPGKEREFVAGITRSGSVTNYADSVKGRFTISADNSKNTAYLQMNSLKPEDTAVYYCAADGVPEYSDYASGPVWGQGTLVTVSS", 123),
    ("7-14 (VHH) VHH: EVQLVESGGGLVQPGGSLRLSCAASGSTFSINAMGWFRQAPGKEREFVAGISRGGTTNYADSVKGRFTISADNSKNTAYLQMNSLKPEDTAVYYCAADGVPEYSDYASGPVWGQGTLVTVSS", 16.9),
    ("3-31 (VHH, also called 3-31_ExpiCHO) VHH: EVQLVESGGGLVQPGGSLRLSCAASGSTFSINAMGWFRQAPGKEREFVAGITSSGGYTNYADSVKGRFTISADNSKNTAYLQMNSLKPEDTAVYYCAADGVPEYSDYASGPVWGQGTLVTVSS", 96700),
    ("3-28 (VHH, not shown: a dimerising Fc or GST) VHH: EVQLVESGGGLVQPGGSLRLSCAASGFTFRRYDMGWFRQAPGKEREFVSAISGGLAYYADSVKGRFTISADNSKNTAYLQMNSLKPEDTAVYYCAVDLSGDAVYDWGQGTLVTVSS", 22),
]
